- test_description: Sweet potency as logarithm of sweet potency (log SP) relative to sucrose
- Type: functional
Criterion: Log SP meeting or surpassing 1. Met: Y. Not met: N.

{"columns": ["compound", "classification"],
 "data": [
  ["C[C@@H](CCc1ccccc1)NC(=O)[C@H](N)CC(=O)O", "N"],
  ["COC(=O)[C@@H](CCC(C)C)NC(=O)[C@H](N)CC(=O)O", "Y"],
  ["COC(=O)CCNC(=O)[C@H](N)CC(=O)O", "N"],
  ["COC(=O)[C@H](NC(=O)[C@@H](N)CC(=O)O)[C@H](C)O", "Y"],
  ["CC(C)C(=O)OC[C@H](C)NC(=O)[C@H](N)CC(=O)O", "Y"],
  ["CCC(CC)OC(=O)CCNC(=O)[C@H](N)CC(=O)O", "N"],
  ["C[C@H](O)[C@@H](NC(=O)[C@@H](N)CC(=O)O)C(=O)OC1CCCCC1", "Y"],
  ["COC(=O)CCCNC(=O)[C@H](N)CC(=O)O", "N"],
  ["COC(=O)[C@@H](CC1CCCCC1)NC(=O)[C@H](N)CC(=O)O", "Y"],
  ["CC(C)COC(=O)[C@H](NC(=O)[C@@H](N)CC(=O)O)[C@@H](C)O", "Y"],
  ["COC(=O)C[C@@H](NC(=O)[C@H](N)CC(=O)O)C(=O)OC", "N"],
  ["COC(=O)[C@@H](CSC(C)C)NC(=O)[C@H](N)CC(=O)O", "Y"],
  ["CC[C@@H](Cc1ccccc1)NC(=O)[C@H](N)CC(=O)O", "N"],
  ["CCSC[C@@H](NC(=O)[C@H](N)CC(=O)O)C(=O)OC", "Y"],
  ["CCC(CC)OC(=O)[C@@H](NC(=O)[C@H](N)CC(=O)O)C(=O)OC (stereo in doubt; 199)", "Y"],
  ["COC(=O)C(NC(=O)[C@@H](N)CC(=O)O)C(=O)OC1CCCCC1C (stereo in doubt; 203)", "Y"],
  ["COC(=O)[C@@H](COC(=O)C(C)(C)C)NC(=O)[C@H](N)CC(=O)O", "Y"],
  ["CCCCCOC(=O)[C@H](C)NC(=O)[C@H](N)CC(=O)O", "N"],
  ["COC(=O)[C@H](CO)NC(=O)[C@H](N)CC(=O)O", "Y"],
  ["C[C@@H](O)[C@@H](NC(=O)[C@@H](N)CC(=O)O)C(=O)OC1CCCCC1", "Y"],
  ["COC(=O)[C@@H](COC(C)=O)NC(=O)[C@H](N)CC(=O)O", "N"],
  ["CC(C)C(=O)OCCNC(=O)[C@H](N)CC(=O)O", "Y"],
  ["CC[C@@H](COC(C)=O)NC(=O)[C@H](N)CC(=O)O", "Y"],
  ["CC(C)CCC(C)NC(=O)[C@H](N)CC(=O)O (stereo not given in full)", "Y"],
  ["CCCOC(=O)[C@H](NC(=O)[C@@H](N)CC(=O)O)[C@H](C)O", "Y"],
  ["CCOC(=O)C[C@H](C)NC(=O)[C@H](N)CC(=O)O (stereo in doubt; 133)", "N"],
  ["CCOC(=O)[C@H](C)NC(=O)[C@H](N)CC(=O)O", "Y"],
  ["COC(=O)C[C@H](C)NC(=O)[C@H](N)CC(=O)O", "N"],
  ["CCCC(=O)OCCNC(=O)[C@H](N)CC(=O)O", "N"],
  ["CCCOC(=O)[C@H](CO)NC(=O)[C@H](N)CC(=O)O", "Y"],
  ["CC(=O)OC[C@H](C)NC(=O)[C@H](N)CC(=O)O", "Y"],
  ["CCCOC(=O)[C@H](NC(=O)[C@@H](N)CC(=O)O)[C@@H](C)O", "Y"],
  ["CC(C)CC(=O)OC[C@H](CO)NC(=O)[C@H](N)CC(=O)O", "Y"],
  ["CCCOC(=O)[C@H](CC)NC(=O)[C@H](N)CC(=O)O", "Y"],
  ["CC[C@@H](COC(=O)C1CC1)NC(=O)[C@H](N)CC(=O)O", "Y"],
  ["CC(C)(Cc1ccccc1)NC(=O)[C@H](N)CC(=O)O", "Y"],
  ["CC(C)CC(=O)OCCNC(=O)[C@H](N)CC(=O)O", "Y"],
  ["CC(C)OC(=O)CCNC(=O)[C@H](N)CC(=O)O", "N"],
  ["CC(C)OC(=O)C[C@H](C)NC(=O)[C@H](N)CC(=O)O", "N"],
  ["COC(=O)[C@@H](CCCNC(C)=O)NC(=O)[C@H](N)CC(=O)O", "N"],
  ["CCCOC(=O)[C@H](CCC)NC(=O)[C@H](N)CC(=O)O", "Y"],
  ["CCC(=O)OC[C@H](COC)NC(=O)[C@H](N)CC(=O)O", "Y"],
  ["CCC(C)C(=O)OC[C@H](CO)NC(=O)[C@H](N)CC(=O)O (stereo not given in full)", "Y"],
  ["CCC(=O)OC[C@@H](NC(=O)[C@H](N)CC(=O)O)C(=O)OC", "Y"],
  ["CC(CNC(=O)[C@H](N)CC(=O)O)C(=O)OC1CCCCC1 (stereo not given in full)", "N"]
]}

---

- test_description: Sweet potency as logarithm of sweet potency (log SP) relative to sucrose
- Type: functional
Note to self: Log SP under 1 means YES, ties and anything higher get NO.

{"columns": ["molecule", "classification"],
 "data": [
  ["C[C@@H](COc1ccccc1)NC(=O)[C@H](N)CC(=O)O", "NO"],
  ["N[C@H](CC(=O)O)C(=O)N[C@@H](CO)COC(=O)C1CCCC1", "YES"],
  ["C=CC(=O)OC[C@H](C)NC(=O)[C@H](N)CC(=O)O", "NO"],
  ["CCCCCCC(C)NC(=O)[C@H](N)CC(=O)O (stereo partly specified)", "NO"],
  ["CC(C)OC(=O)[C@H](CO)NC(=O)[C@H](N)CC(=O)O", "NO"],
  ["CC(CNC(=O)[C@H](N)CC(=O)O)C(=O)OC(C)(C)C (stereo partly specified)", "YES"],
  ["COC(=O)C(NC(=O)[C@@H](N)CC(=O)O)C(C)c1ccccc1 (stereo partly specified)", "YES"],
  ["CCCC(=O)OC[C@H](C)NC(=O)[C@H](N)CC(=O)O", "NO"],
  ["C[C@@H](CC(=O)OC(C)(C)C)NC(=O)[C@H](N)CC(=O)O", "YES"],
  ["COC(=O)[C@H](Cc1ccccc1)NC(=O)[C@@H](N)CC(=O)O", "NO"],
  ["COC(=O)[C@@H](CCCCNC(C)=O)NC(=O)[C@H](N)CC(=O)O", "YES"]
]}

---

- test_description: Sweet potency as logarithm of sweet potency (log SP) relative to sucrose
- Type: functional
Kindly return label 1 if reported Log SP is no lower than 2; return label 0 if it is lower.

{"columns": ["compound", "classification"],
 "data": [
  ["C[C@@H](Cc1ccco1)NC(=O)[C@H](N)CC(=O)O", "label 0"],
  ["CC(C)OC(=O)C(C)CNC(=O)[C@H](N)CC(=O)O (some centres undefined)", "label 0"],
  ["CCCC(=O)OC[C@@H](NC(=O)[C@H](N)CC(=O)O)C(=O)OC", "label 0"],
  ["COC(=O)C(NC(=O)[C@@H](N)CC(=O)O)C(=O)OC1C(C)CCCC1C (some centres undefined)", "label 1"],
  ["CCOC(=O)[C@H](NC(=O)[C@H](N)CC(=O)O)C(=O)OC1CCCC1", "label 1"],
  ["CCCC(C)OC(=O)CCNC(=O)[C@H](N)CC(=O)O (some centres undefined)", "label 0"],
  ["CCOC(=O)[C@H](NC(=O)[C@@H](N)CC(=O)O)[C@H](C)O", "label 0"],
  ["CCCC[C@@H](NC(=O)[C@H](N)CC(=O)O)C(=O)OC", "label 0"],
  ["CC(Cc1ccccc1)NC(=O)[C@H](N)CC(=O)O (some centres undefined)", "label 0"],
  ["C[C@@H](COC(=O)C1CCC1)NC(=O)[C@H](N)CC(=O)O", "label 1"],
  ["CCCCC[C@@H](NC(=O)[C@H](N)CC(=O)O)C(=O)OC", "label 0"],
  ["CCCC[C@H](C)NC(=O)[C@H](N)CC(=O)O", "label 0"],
  ["COC(=O)C(NC(=O)[C@@H](N)CC(=O)O)C(=O)OC1CCCCC1C (stereo in doubt; 202)", "label 1"],
  ["CC(C)(C)OC(=O)CCNC(=O)[C@H](N)CC(=O)O", "label 0"],
  ["CC(C)CC(=O)OC[C@H](C)NC(=O)[C@H](N)CC(=O)O", "label 1"],
  ["CC(CNC(=O)[C@H](N)CC(=O)O)C(=O)OC1CCCC1 (some centres undefined)", "label 0"],
  ["CC(C)C(=O)OC[C@H](CO)NC(=O)[C@H](N)CC(=O)O", "label 0"],
  ["CCCC(=O)OC[C@@H](NC(=O)[C@H](N)CC(=O)O)C(C)C", "label 0"],
  ["CCOC(=O)C[C@H](C)NC(=O)[C@H](N)CC(=O)O (stereo in doubt; 128)", "label 0"],
  ["COC(=O)[C@@H](Cc1ccc(O)cc1)NC(=O)[C@H](N)CC(=O)O", "label 1"],
  ["CCCC(O)[C@H](NC(=O)[C@H](N)CC(=O)O)C(=O)OC (stereo in doubt; 56)", "label 0"],
  ["COC(=O)C(NC(=O)[C@@H](N)CC(=O)O)C(=O)OC1CC(C)CC(C)(C)C1 (some centres undefined)", "label 1"],
  ["COC(=O)[C@@H](COC(=O)C(C)C)NC(=O)[C@H](N)CC(=O)O", "label 0"],
  ["COC(=O)C(NC(=O)[C@@H](N)CC(=O)O)C(=O)OC1CC2CCC1(C)C2(C)C (some centres undefined)", "label 1"],
  ["CCC[C@@H](NC(=O)[C@H](N)CC(=O)O)C(=O)OC", "label 0"],
  ["CCCCOC(=O)[C@H](C)NC(=O)[C@H](N)CC(=O)O", "label 0"],
  ["CCCCOC(=O)[C@H](NC(=O)[C@@H](N)CC(=O)O)[C@H](C)O", "label 0"],
  ["N[C@H](CC(=O)O)C(=O)NCCOC(=O)C1CC1", "label 0"],
  ["CCOC(=O)C(NC(=O)[C@H](N)CC(=O)O)C(=O)OCC", "label 0"],
  ["N[C@H](CC(=O)O)C(=O)NCCC(=O)OC1CCCCC1", "label 0"],
  ["CC(C)OC(=O)[C@H](NC(=O)[C@@H](N)CC(=O)O)[C@@H](C)O", "label 0"]
]}
